MIC for assorted molecules
- Tested on: Streptococcus pneumoniae
- experimental-details: Antibacterial activity against Streptococcus pneumoniae harboring mutation in 23S rRNA after overnight incubation by agar dilution method
- Type: functional
Give the quantity in µg/mL, number only.

The molecule listed as CC[C@H]1OC(=O)[C@H](C)C(=O)[C@H](C)[C@@H](O[C@@H]2O[C@H](C)C[C@H](N(C)C)[C@H]2O)[C@](C)(OC)C[C@@H](C)C(=O)[C@H](C)[C@H]2N(CCCCn3cnc(-c4cccnc4)c3)C(=O)O[C@]12C [TELITHROMYCIN] has a reported MIC of 0.03

What the record says about CC[C@H]1OC(=O)[C@H](C)[C@@H](O[C@H]2C[C@@](C)(OC)[C@@H](O)[C@H](C)O2)[C@H](C)[C@@H](O[C@@H]2O[C@H](C)C[C@H](N(C)C)[C@H]2O)[C@](C)(OC)C[C@@H](C)C(=O)[C@H](C)[C@@H](O)[C@]1(C)O [CLARITHROMYCIN] : MIC is 8

Per the records, this molecule ( C[C@H]1COc2c(N3CCN(C)CC3)c(F)cc3c(=O)c(C(=O)O)cn1c23.C[C@H]1COc2c(N3CCN(C)CC3)c(F)cc3c(=O)c(C(=O)O)cn1c23.O [LEVOFLOXACIN] ) has MIC equal to 0.06

Entry CC[C@H]1OC(=O)[C@H](C)[C@@H](O[C@H]2C[C@@](C)(OC)[C@@H](O)[C@H](C)O2)[C@H](C)[C@@H](O[C@@H]2O[C@H](C)C[C@H](N(C)C)[C@H]2O)[C@](C)(O)C[C@@H](C)CN(C)[C@H](C)[C@@H](O)[C@]1(C)O [AZITHROMYCIN] , MIC reported as 32

###

- Tested on: Streptococcus pneumoniae
- experimental-details: Antibacterial activity against macrolide-susceptible Streptococcus pneumoniae 1077 after overnight incubation by agar dilution method
- Type: functional
observable: MIC (µg/mL)
Use µg/mL as the unit, but write only the number.

Previously resolved entries follow.
{"compound": "CC[C@H]1OC(=O)[C@H](C)[C@@H](O[C@H]2C[C@@](C)(OC)[C@@H](O)[C@H](C)O2)[C@H](C)[C@@H](O[C@@H]2O[C@H](C)C[C@H](N(C)C)[C@H]2O)[C@](C)(O)C[C@@H](C)CN(C)[C@H](C)[C@@H](O)[C@]1(C)O [AZITHROMYCIN]", "observable": "MIC", "observed": 0.03}
{"compound": "CC[C@H]1OC(=O)[C@H](C)[C@@H](O[C@H]2C[C@@](C)(OC)[C@@H](O)[C@H](C)O2)[C@H](C)[C@@H](O[C@@H]2O[C@H](C)C[C@H](N(C)C)[C@H]2O)[C@](C)(OC)C[C@@H](C)C(=O)[C@H](C)[C@@H](O)[C@]1(C)O [CLARITHROMYCIN]", "observable": "MIC", "observed": 0.016}
{"compound": "CC[C@H]1OC(=O)[C@H](C)C(=O)[C@H](C)[C@@H](O[C@@H]2O[C@H](C)C[C@H](N(C)C)[C@H]2O)[C@](C)(OC)C[C@@H](C)C(=O)[C@H](C)[C@H]2N(CCCCn3cnc(-c4cccnc4)c3)C(=O)O[C@]12C [TELITHROMYCIN]", "observable": "MIC", "observed": 0.004}
{"compound": "CCC[C@@H]1C[C@@H](C(=O)N[C@@H]([C@H]2O[C@H](SC)[C@H](O)[C@@H](O)[C@H]2O)[C@H](C)Cl)N(C)C1 [CLINDAMYCIN]", "observable": "MIC", "observed": 0.016}

Read the next record carefully.
What the record says about CC[C@H]1OC(=O)[C@@](C)(F)C(=O)[C@H](C)[C@@H](O[C@@H]2O[C@H](C)C[C@H](N(C)C)[C@H]2O)[C@](C)(OC)C[C@@H](C)C(=O)[C@H](C)[C@H]2N(CCCCn3cc(-c4cccc(N)c4)nn3)C(=O)O[C@]12C [SOLITHROMYCIN] : MIC is 0.008
